biological target: T1, histidine-tagged human SIRPA v1 (Novoprotein) (human, UniProt P78324 31-370, limits assumed); experiment: BLI (Octet), antibody on anti-human IgG Fc sensor, His-huSIRPA in solution, single-curve 1:1 fit
T1 construct: bought, soluble; also called huSIRPA; soluble huSIRPA; not shown: histidine tag
T1 sequence (P78324 31-370 limits assumed): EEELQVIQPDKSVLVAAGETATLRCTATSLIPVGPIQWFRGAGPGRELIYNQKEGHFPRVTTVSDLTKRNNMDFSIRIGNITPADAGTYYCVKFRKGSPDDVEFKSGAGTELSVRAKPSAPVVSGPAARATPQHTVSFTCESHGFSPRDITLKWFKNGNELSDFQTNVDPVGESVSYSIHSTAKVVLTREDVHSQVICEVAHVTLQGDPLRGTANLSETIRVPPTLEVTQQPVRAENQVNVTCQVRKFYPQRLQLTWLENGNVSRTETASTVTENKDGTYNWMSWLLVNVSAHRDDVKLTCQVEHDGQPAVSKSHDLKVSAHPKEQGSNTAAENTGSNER
Measure Name: koff (s⁻¹)
Note: unit s⁻¹ is implicit; provide only the numeric part.

# annotated cases, reported koff shown
• 3F9-1 (antibody, human IgG1, V domains shown, also called mAb 3F9-1) VH: EVQLLESGGGLVQPGGSLRLSCAASGFTFSSYAMSWVRQAPGKGLEWVATISEYGGSYTYYAESVKGRFTISRDNSKNTLYLQMNSLRAEDTAVYYCARPPYDDYYGGFAYWGQGTLVTVSS VL: DIQLTQSPSSLSASVGDRVTITCRASKSVSSGGYSYMHWYQQKPGKAPKLLIYLASNLESGVPSRFSGSGSGTDFTLTISSVQPEDFATYYCQHNRELPSTFGQGTKLEIK = 0.000222
• 3F9-25 (antibody, human IgG1, V domains shown, also called mAb 3F9-25) VH: EVQLLESGGGLVQPGGSLRLSCAASGFTFSSYAMSWVRQAPGKGLEWVATISEYGGSYTYYAESVKGRFTISRDNSKNTLYLQMNSLRAEDTAVYYCARPPYDDYYGGFQYWGQGTLVTVSS VL: DIQLTQSPSSLSASVGDRVTITCRASKSVSSGGYSYMHWYQQKPGKAPKLLIYLASNLESGVPSRFSGSGSGTDFTLTISSVQPEDFATYYCQHNRELPWTFGQGTKLEIK = 0.000162

Need koff, item 3F9-2 (antibody, human IgG1, V domains shown, also called mAb 3F9-2) VH: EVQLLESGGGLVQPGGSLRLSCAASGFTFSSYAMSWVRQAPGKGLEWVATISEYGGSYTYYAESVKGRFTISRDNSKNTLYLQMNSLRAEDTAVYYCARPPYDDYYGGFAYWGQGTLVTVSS VL: DIQLTQSPSSLSASVGDRVTITCRASKSVSSGGYSYMHWYQQKPGKAPKLLIYLASNLESGVPSRFSGSGSGTDFTLTISSVQPEDFATYYCQHNRELPCTFGQGTKLEIK
0.000222
